Data provenance is ChEMBL document CHEMBL4813967.

Test system: K562
Assay: Induction of cell sensitization to imatinib in imatinib-resistant human K562 cells assessed as cell death at 5 uM incubated for 72 hrs in presence of 1 uM imatinib by PI staining based flow cytometry (reference value: 19%)
Type: functional
compounds and their reported Activity

Some compounds with known Activity results, for comparison:
{"structure_smiles_string": "CCCc1nc2c(F)cccc2n1Cc1ccc(-c2ccccc2C#N)cc1", "assay_result": "50%"}
{"structure_smiles_string": "CCCc1nc2c(Br)cccc2n1Cc1ccc(-c2ccccc2C(=O)OC)cc1", "assay_result": "26%"}
{"structure_smiles_string": "CCCc1nc2c(OC)cccc2n1Cc1ccc(-c2ccccc2C#N)cc1", "assay_result": "50%"}
{"structure_smiles_string": "CCCc1nc2c(C)cccc2n1Cc1ccc(-c2ccccc2C#N)cc1", "assay_result": "50%"}
{"structure_smiles_string": "CCCc1nc2c(N)cccc2n1Cc1ccc(-c2ccccc2C#N)cc1", "assay_result": "28%"}

Proceeding to the next compound to report its Activity.
Task: Can you look up the measured Activity of CCCc1nc2c(F)cccc2n1Cc1ccc(-c2ccccc2C(=O)OC)cc1 for me?
Result: 26%

* * *

Biological target: Signal transducer and activator of transcription 5A (Homo sapiens)
Sequence (whole entry): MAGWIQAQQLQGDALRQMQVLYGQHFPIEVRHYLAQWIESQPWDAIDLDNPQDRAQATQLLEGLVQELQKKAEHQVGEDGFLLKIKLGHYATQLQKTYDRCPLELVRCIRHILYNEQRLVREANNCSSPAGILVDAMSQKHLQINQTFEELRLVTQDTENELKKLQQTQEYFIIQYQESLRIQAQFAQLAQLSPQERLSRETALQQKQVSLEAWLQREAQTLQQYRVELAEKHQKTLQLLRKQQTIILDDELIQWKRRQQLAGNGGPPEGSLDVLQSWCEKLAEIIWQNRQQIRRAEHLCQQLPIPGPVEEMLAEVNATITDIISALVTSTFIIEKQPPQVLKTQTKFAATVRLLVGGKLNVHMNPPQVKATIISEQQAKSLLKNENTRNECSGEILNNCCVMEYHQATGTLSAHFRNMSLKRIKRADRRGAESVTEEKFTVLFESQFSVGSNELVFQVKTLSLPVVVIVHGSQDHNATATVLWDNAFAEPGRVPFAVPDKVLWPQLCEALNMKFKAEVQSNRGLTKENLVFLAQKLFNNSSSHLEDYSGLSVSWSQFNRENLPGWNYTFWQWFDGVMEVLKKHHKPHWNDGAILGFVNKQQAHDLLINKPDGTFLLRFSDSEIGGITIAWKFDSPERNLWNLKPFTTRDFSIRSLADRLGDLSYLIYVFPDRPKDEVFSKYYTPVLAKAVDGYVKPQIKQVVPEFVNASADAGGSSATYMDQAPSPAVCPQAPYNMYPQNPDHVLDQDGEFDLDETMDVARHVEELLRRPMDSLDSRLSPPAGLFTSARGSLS
Test: Inhibition of STAT5 phosphorylation at Y694/699 residue in imatinib-resistant human K562 cells assessed as phosphorylated STAT5 level at 5 uM incubated for 6 hrs in presence of imatinib by Jess Simple Western immunoassay (reference value: 100%)
Assay type: cell-based
Set-up: scale not given: the % may be the effect or the level left
measurement_label: Activity (%)
Unit % implied. Number only.

{"structure_smiles_string": "CCCc1nc2ccccc2n1Cc1ccc(-c2ccccc2C(=O)OC)cc1", "Activity, %": 2}
{"structure_smiles_string": "CCCc1nc2ccccc2n1Cc1ccc(-c2ccccc2C#N)cc1", "Activity, %": 3}
{"structure_smiles_string": "CCCc1nc2c(Br)cccc2n1Cc1ccc(-c2ccccc2C#N)cc1", "Activity, %": 4}

Proceeding to the next molecule to report its Activity.
Task: Can you look up the measured Activity of CCCc1nc2c(F)cccc2n1Cc1ccc(-c2ccccc2C#N)cc1 for me?
Result: 1

* * *

Target: Peroxisome proliferator-activated receptor gamma (Homo sapiens)
Sequence (P37231 whole entry, the tested form may be a part): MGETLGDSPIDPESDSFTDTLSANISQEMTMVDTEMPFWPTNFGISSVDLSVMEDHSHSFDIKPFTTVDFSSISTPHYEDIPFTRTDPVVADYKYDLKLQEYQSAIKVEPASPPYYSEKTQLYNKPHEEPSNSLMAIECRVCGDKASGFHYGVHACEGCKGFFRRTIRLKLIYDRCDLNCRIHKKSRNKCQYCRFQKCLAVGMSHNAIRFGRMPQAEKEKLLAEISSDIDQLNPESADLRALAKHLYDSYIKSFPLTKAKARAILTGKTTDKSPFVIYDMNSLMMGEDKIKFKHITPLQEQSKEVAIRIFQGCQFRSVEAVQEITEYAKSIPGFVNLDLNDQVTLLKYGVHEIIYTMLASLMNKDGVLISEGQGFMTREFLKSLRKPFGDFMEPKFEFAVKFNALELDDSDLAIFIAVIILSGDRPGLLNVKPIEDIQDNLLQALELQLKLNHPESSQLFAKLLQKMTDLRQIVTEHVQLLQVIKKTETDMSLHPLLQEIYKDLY
Test: Agonist activity at Gal4-fused human PPARgamma transfected in African green monkey COS7 cells co-transfected with pGal5-TK-pGL3 and pRenilla-CMV assessed as receptor transactivation at 10 uM incubated for 39 hrs by dual luciferase reporter gene assay relative to piaglitazone
Assay type: cell-based
Details: COS-7, human, read-out: max activation
compounds and their reported Emax at 10 µM
Unit % implied. Number only.

Some compounds with known Emax at 10 µM results, for comparison:
{"compound": "CCCc1nc2c(OC)cccc2n1Cc1ccc(-c2ccccc2C(=O)OC)cc1", "assay_result": 20.7}
{"compound": "CCCc1nc2c(N)cccc2n1Cc1ccc(-c2ccccc2C(=O)OC)cc1", "assay_result": 0.11}
{"compound": "CCCc1nc2c(C)cc(-c3nc4ccccc4n3C)cc2n1Cc1ccc(-c2ccccc2C(=O)O)cc1 [TELMISARTAN]", "assay_result": 59.8}
{"compound": "CCCc1nc2c(Cl)cccc2n1Cc1ccc(-c2ccccc2C#N)cc1", "assay_result": 68.4}
{"compound": "CCCc1nc2c(F)cccc2n1Cc1ccc(-c2ccccc2C(=O)OC)cc1", "assay_result": 14.7}

Task: Can you look up the measured Emax at 10 µM of CCCc1nc2c(F)cccc2n1Cc1ccc(-c2ccccc2C#N)cc1 for me?
Result: 76

Task: Can you look up the measured Emax at 10 µM of CCCc1nc2c([N+](=O)[O-])cccc2n1Cc1ccc(-c2ccccc2C#N)cc1 for me?
Result: 37.9

Task: Can you look up the measured Emax at 10 µM of CCCc1nc2c(C)cccc2n1Cc1ccc(-c2ccccc2C#N)cc1 for me?
Result: 32.2

Task: Can you look up the measured Emax at 10 µM of CCCc1nc2c([N+](=O)[O-])cccc2n1Cc1ccc(-c2ccccc2C(=O)OC)cc1 for me?
Result: 15

Task: Can you look up the measured Emax at 10 µM of CCCc1nc2c(Br)cccc2n1Cc1ccc(-c2ccccc2C#N)cc1 for me?
Result: 41.1

Task: Can you look up the measured Emax at 10 µM of CCCc1nc2c(Br)cccc2n1Cc1ccc(-c2ccccc2C(=O)OC)cc1 for me?
Result: 11.6

Task: Can you look up the measured Emax at 10 µM of CCCc1nc2c(Cl)cccc2n1Cc1ccc(-c2ccccc2C(=O)OC)cc1 for me?
Result: 22.2

Task: Can you look up the measured Emax at 10 µM of CCCc1nc2c(N)cccc2n1Cc1ccc(-c2ccccc2C#N)cc1 for me?
Result: 43

* * *

molecules and their reported Activity
Target: Signal transducer and activator of transcription 5A (Homo sapiens) (UniProt P42229)
Sequence (whole entry): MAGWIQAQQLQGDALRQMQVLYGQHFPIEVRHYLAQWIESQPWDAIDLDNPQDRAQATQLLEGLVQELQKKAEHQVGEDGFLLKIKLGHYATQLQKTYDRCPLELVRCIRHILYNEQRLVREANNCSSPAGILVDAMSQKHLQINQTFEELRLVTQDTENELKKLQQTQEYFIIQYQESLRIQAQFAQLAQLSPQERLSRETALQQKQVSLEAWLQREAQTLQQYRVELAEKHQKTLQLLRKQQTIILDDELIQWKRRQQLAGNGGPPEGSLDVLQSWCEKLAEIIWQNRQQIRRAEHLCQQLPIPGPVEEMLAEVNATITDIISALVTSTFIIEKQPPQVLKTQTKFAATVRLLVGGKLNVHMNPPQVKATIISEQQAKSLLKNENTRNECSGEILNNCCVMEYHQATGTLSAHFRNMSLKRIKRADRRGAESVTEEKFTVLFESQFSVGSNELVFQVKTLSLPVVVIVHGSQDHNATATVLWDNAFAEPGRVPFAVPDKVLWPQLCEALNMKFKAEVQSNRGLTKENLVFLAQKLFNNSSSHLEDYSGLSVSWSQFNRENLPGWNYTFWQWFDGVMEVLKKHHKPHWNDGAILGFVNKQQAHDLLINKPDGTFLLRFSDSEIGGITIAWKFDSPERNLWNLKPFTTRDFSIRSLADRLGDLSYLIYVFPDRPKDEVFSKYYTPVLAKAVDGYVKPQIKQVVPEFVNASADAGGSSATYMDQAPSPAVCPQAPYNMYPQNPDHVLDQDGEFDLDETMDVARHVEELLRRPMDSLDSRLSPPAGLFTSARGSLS
Assay: Inhibition of STAT5 phosphorylation at Y694/699 residue in imatinib-resistant human K562 cells assessed as phosphorylated STAT5 level at 5 uM incubated for 6 hrs by Jess Simple Western immunoassay (reference value: 100%)
Type: cell-based
Design: scale not given: the % may be the effect or the level left
Unit % implied. Number only.

Some molecules with known Activity results, for comparison:
{"structure_smiles_string": "CCCc1nc2c(Br)cccc2n1Cc1ccc(-c2ccccc2C(=O)OC)cc1", "assay_result": 89}
{"structure_smiles_string": "CCCc1nc2c(Cl)cccc2n1Cc1ccc(-c2ccccc2C(=O)OC)cc1", "assay_result": 87}
{"structure_smiles_string": "CCCc1nc2ccccc2n1Cc1ccc(-c2ccccc2C(=O)OC)cc1", "assay_result": 104}
{"structure_smiles_string": "CCCc1nc2c(Cl)cccc2n1Cc1ccc(-c2ccccc2C#N)cc1", "assay_result": 81}
{"structure_smiles_string": "CCCc1nc2c(F)cccc2n1Cc1ccc(-c2ccccc2C#N)cc1", "assay_result": 89}

Task: Can you look up the measured Activity of CCCc1nc2ccccc2n1Cc1ccc(-c2ccccc2C#N)cc1 for me?
Result: 78

Task: Can you look up the measured Activity of CCCc1nc2c(Br)cccc2n1Cc1ccc(-c2ccccc2C#N)cc1 for me?
Result: 90

Task: Can you look up the measured Activity of CCCc1nc2c(F)cccc2n1Cc1ccc(-c2ccccc2C(=O)OC)cc1 for me?
Result: 102
